Target: recombinant Human Phosphodiesterase B2 (PDE4B2) (Homo sapiens)
Assay: Human Phosphodiesterase B2 Alpha Screen Assay
Details: cAMP substrate, Alpha Screen cAMP kit, 60 minutes at room temperature
observed-property: pIC50
FYI, pIC50 means -log10 of a concentration in mol per litre.

Past entries and their recorded results:
Consider the compound shown here: O=C(N[C@H]1CC[C@@H](n2c(=O)c3cc(F)cnc3n(-c3ccc(F)c(F)c3)c2=O)CC1)c1ccc(O)c(Cl)c1 What is its recorded pIC50?
8.66

Consider the compound shown here: O=C(N[C@H]1CC[C@@H](n2c(=O)c3cc(F)cnc3n(-c3ccc(F)c(F)c3)c2=O)CC1)c1cn[nH]c1 What is its recorded pIC50?
8.27

Consider the compound shown here: O=C(N[C@H]1CC[C@@H](n2c(=O)c3cc(F)cnc3n(-c3ccc(F)c(F)c3)c2=O)CC1)c1nc2ncccn2n1 What is its recorded pIC50?
7.52

Consider the compound shown here: CSc1cccc(-n2c(=O)n([C@H]3CC[C@@H](NC(=O)C4CC4)CC3)c(=O)c3cc(F)cnc32)c1 What is its recorded pIC50?
8.59

Consider the compound shown here: CCC(=O)N[C@H]1CC[C@@H](n2c(=O)c3cc(F)cnc3n(-c3cccc(SC)c3)c2=O)CC1 What is its recorded pIC50?
8.14

More entries:
Consider the compound shown here: COC(=O)c1cccc(-n2c(=O)n([C@H]3CC[C@@H](NC(=O)CC(C)C)CC3)c(=O)c3cc(F)cnc32)c1 What is its recorded pIC50?
8.24

Consider the compound shown here: O=C(N[C@H]1CC[C@@H](n2c(=O)c3cc(F)cnc3n(-c3ccc(F)c(F)c3)c2=O)CC1)[C@H](O)C1CCCCC1 What is its recorded pIC50?
9.00

Consider the compound shown here: O=C(N[C@H]1CC[C@@H](n2c(=O)c3cc(F)cnc3n(-c3ccc(F)c(F)c3)c2=O)CC1)c1c(O)cccc1F What is its recorded pIC50?
8.96

Consider the compound shown here: O=C(N[C@H]1CC[C@@H](n2c(=O)c3cc(F)cnc3n(-c3ccc(F)c(F)c3)c2=O)CC1)c1cc2ccccc2[nH]1 What is its recorded pIC50?
9.05

Consider the compound shown here: COC(=O)c1ccc(C(=O)N[C@H]2CC[C@@H](n3c(=O)c4cc(F)cnc4n(-c4ccc(F)c(F)c4)c3=O)CC2)cc1 What is its recorded pIC50?
8.72

Consider the compound shown here: O=C(CNC(=O)c1ccccc1O)N[C@H]1CC[C@@H](n2c(=O)c3cc(F)cnc3n(-c3ccc(F)c(F)c3)c2=O)CC1 What is its recorded pIC50?
9.22

Consider the compound shown here: O=C(N[C@H]1CC[C@@H](n2c(=O)c3cc(F)cnc3n(-c3ccc(F)c(F)c3)c2=O)CC1)C1CC1 What is its recorded pIC50?
8.06

Consider the compound shown here: COC(=O)c1cccc(-n2c(=O)n([C@H]3CC[C@@H](NC(=O)c4cn5ccccc5n4)CC3)c(=O)c3cc(F)cnc32)c1 What is its recorded pIC50?
9.00

Consider the compound shown here: O=C(N[C@H]1CC[C@@H](n2c(=O)c3cc(F)cnc3n(-c3ccc(F)c(F)c3)c2=O)CC1)c1cc2cccnc2s1 What is its recorded pIC50?
8.22

Consider the compound shown here: Cc1ccc(O)c(C(=O)N[C@H]2CC[C@@H](n3c(=O)c4cc(F)cnc4n(-c4ccc(F)c(F)c4)c3=O)CC2)c1 What is its recorded pIC50?
8.64

Consider the compound shown here: COC(=O)c1cccc(-n2c(=O)n([C@H]3CC[C@@H](NC(=O)C4CCCCC4)CC3)c(=O)c3cc(F)cnc32)c1 What is its recorded pIC50?
8.59

###

log10 of IC50 values, listed per item
Target: recombinant Human Phosphodiesterase B2 (PDE4B2) (Homo sapiens, UniProt Q07343)
Sequence (Q07343 1-564 isoform Q07343-2): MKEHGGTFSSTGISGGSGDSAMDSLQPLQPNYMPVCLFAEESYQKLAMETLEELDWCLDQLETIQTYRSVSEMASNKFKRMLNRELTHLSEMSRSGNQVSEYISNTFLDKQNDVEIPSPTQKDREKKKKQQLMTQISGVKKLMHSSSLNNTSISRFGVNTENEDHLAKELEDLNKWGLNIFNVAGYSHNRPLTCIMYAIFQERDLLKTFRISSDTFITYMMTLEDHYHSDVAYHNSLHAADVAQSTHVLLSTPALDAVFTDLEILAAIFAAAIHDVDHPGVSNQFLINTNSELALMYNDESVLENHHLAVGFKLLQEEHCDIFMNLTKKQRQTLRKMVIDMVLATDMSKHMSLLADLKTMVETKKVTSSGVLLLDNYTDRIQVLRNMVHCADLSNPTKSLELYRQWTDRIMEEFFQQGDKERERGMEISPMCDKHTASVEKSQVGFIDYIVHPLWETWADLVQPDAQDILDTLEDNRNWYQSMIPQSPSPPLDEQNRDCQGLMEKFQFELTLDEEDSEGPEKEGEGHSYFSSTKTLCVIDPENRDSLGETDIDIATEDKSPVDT
Experiment: Human Phosphodiesterase B2 Alpha Screen Assay
Settings: cAMP substrate, Alpha Screen cAMP kit, 60 minutes at room temperature
All values: base-10 log of IC50 in nM.

Past entries and their recorded results:
Param readout= log10 of IC50; system= recombinant Human Phosphodiesterase B2 (PDE4B2) (Homo sapiens, UniProt Q07343); entry= COC(=O)c1cccc(-n2c(=O)n([C@H]3CC[C@@H](NC(=O)C4CC4)CC3)c(=O)c3cc(F)cnc32)c1 ; returns value.
0.82

Param readout= log10 of IC50; system= recombinant Human Phosphodiesterase B2 (PDE4B2) (Homo sapiens, UniProt Q07343); entry= Cc1ccc(O)c(C(=O)N[C@H]2CC[C@@H](N3C(=O)c4cc(F)cnc4N(c4ccc(F)c(F)c4)[S+]3[O-])CC2)c1 (relative stereo) ; returns value.
2.11

Param readout= log10 of IC50; system= recombinant Human Phosphodiesterase B2 (PDE4B2) (Homo sapiens, UniProt Q07343); entry= CN1CCCC(C(=O)N[C@H]2CC[C@@H](n3c(=O)c4cc(F)cnc4n(-c4ccc(F)c(F)c4)c3=O)CC2)C1 (relative stereo) ; returns value.
0.78

Param readout= log10 of IC50; system= recombinant Human Phosphodiesterase B2 (PDE4B2) (Homo sapiens, UniProt Q07343); entry= O=C(CCN1CCOCC1)N[C@H]1CC[C@@H](n2c(=O)c3cc(F)cnc3n(-c3ccc(F)c(F)c3)c2=O)CC1 ; returns value.
0.33

Param readout= log10 of IC50; system= recombinant Human Phosphodiesterase B2 (PDE4B2) (Homo sapiens, UniProt Q07343); entry= COC(=O)c1cccc(-n2c(=O)n([C@H]3CC[C@@H](NC(C)=O)CC3)c(=O)c3cc(F)cnc32)c1 ; returns value.
1.33

Param readout= log10 of IC50; system= recombinant Human Phosphodiesterase B2 (PDE4B2) (Homo sapiens, UniProt Q07343); entry= O=C(N[C@H]1CC[C@@H](n2c(=O)c3cc(F)cnc3n(-c3ccc(F)c(F)c3)c2=O)CC1)c1ccccc1O ; returns value.
0.41

Consider the record given below.
Param readout= log10 of IC50; system= recombinant Human Phosphodiesterase B2 (PDE4B2) (Homo sapiens, UniProt Q07343); entry= CSc1cccc(-n2c(=O)n([C@H]3CC[C@@H](NC(=O)c4ccco4)CC3)c(=O)c3cc(F)cnc32)c1 ; returns value.
0.59

###

Target: recombinant Human Phosphodiesterase B2 (PDE4B2) (Homo sapiens)
Assay: Human Phosphodiesterase B2 Alpha Screen Assay
Format: biochemical
Details: cAMP substrate, Alpha Screen cAMP kit, 60 minutes at room temperature
IC50 values, listed per item
Answer format: number, then unit.

Consider the molecule shown here: COC(=O)c1cccc(-n2c(=O)n([C@H]3CC[C@@H](NC(=O)C(C)C)CC3)c(=O)c3cc(F)cnc32)c1 What is its recorded IC50?
6.3 nM

More entries:
Consider the molecule shown here: COC(=O)c1cccc(-n2c(=O)n([C@H]3CC[C@@H](NC(=O)c4ccc(CN(C)C)o4)CC3)c(=O)c3cc(F)cnc32)c1 What is its recorded IC50?
5.1 nM

Consider the molecule shown here: O=C(N[C@H]1CC[C@@H](n2c(=O)c3cc(F)cnc3n(-c3ccc(F)c(F)c3)c2=O)CC1)c1ccc2[nH]nnc2c1 What is its recorded IC50?
6.11 nM

Consider the molecule shown here: O=C(c1n[nH]c2ccccc12)N1CCC(n2c(=O)c3cc(F)cnc3n(-c3ccc(F)c(F)c3)c2=O)CC1 What is its recorded IC50?
9.5 nM

Consider the molecule shown here: C#Cc1ccc(C(=O)N[C@H]2CC[C@@H](n3c(=O)c4cc(F)cnc4n(-c4ccc(F)c(F)c4)c3=O)CC2)cc1 What is its recorded IC50?
1 nM

Consider the molecule shown here: Cc1ccc(C(=O)N[C@H]2CC[C@@H](n3c(=O)c4cc(F)cnc4n(-c4ccc(F)c(F)c4)c3=O)CC2)cc1O What is its recorded IC50?
1.3 nM

###

Target: recombinant Human Phosphodiesterase B2 (PDE4B2) (Homo sapiens, UniProt Q07343)
Experiment: Human Phosphodiesterase B2 Alpha Screen Assay
Settings: cAMP substrate, Alpha Screen cAMP kit, 60 minutes at room temperature
Protocol: Human Phosphodiesterase B2 Alpha Screen Assay The assay uses recombinant Human Phosphodiesterase B2 (PDE4B2) produced in house (PrAZL0133), stored at −20° C. […] The assay additions were as follows: Test compounds and controls were added to white 384-well flat-bottom plates (Greiner, Cat# 781075), 0.2 μl in 100% DMSO, followed by 10 μl PDE4B2 in reaction buffer. […] IC50 values (presented in Table 1) were determined using Xlfit curve fitting using model 205.
observed-property: pIC50
FYI, pIC50 means -log10 of a concentration in mol per litre.

Consider the compound shown here: O=C(N[C@H]1CC[C@@H](n2c(=O)c3cc(F)cnc3n(-c3ccc(F)c(F)c3)c2=O)CC1)c1n[nH]c2ccccc12 [Example 32] What is its recorded pIC50?
9.22

Consider the compound shown here: COC(=O)c1cccc(-n2c(=O)n([C@H]3CC[C@@H](NC(=O)c4cc5ccccn5n4)CC3)c(=O)c3cc(F)cnc32)c1 [Example 68] What is its recorded pIC50?
9.22

Consider the compound shown here: CSc1cccc(-n2c(=O)n([C@H]3CC[C@@H](NC(=O)c4ccccc4)CC3)c(=O)c3cc(F)cnc32)c1 [Example 57] What is its recorded pIC50?
8.38

Consider the compound shown here: COC(=O)c1cccc(-n2c(=O)n([C@H]3CC[C@@H](NC(=O)C(C)(C)C)CC3)c(=O)c3cc(F)cnc32)c1 [Example 64] What is its recorded pIC50?
8.36

Consider the compound shown here: CS(=O)(=O)N[C@H]1CC[C@@H](n2c(=O)c3cc(F)cnc3n(-c3ccc(F)c(F)c3)c2=O)CC1 [Example 47] What is its recorded pIC50?
7.22

More entries:
Consider the compound shown here: CC(C)C[C@H](O)C(=O)N[C@H]1CC[C@@H](n2c(=O)c3cc(F)cnc3n(-c3ccc(F)c(F)c3)c2=O)CC1 [Example 21] What is its recorded pIC50?
8.44

Consider the compound shown here: O=C(N[C@H]1CC[C@@H](n2c(=O)c3cc(F)cnc3n(-c3ccc(F)c(F)c3)c2=O)CC1)c1csnn1 [Example 93] What is its recorded pIC50?
7.93

Consider the compound shown here: CSc1cccc(-n2c(=O)n([C@H]3CC[C@@H](NC(=O)CO)CC3)c(=O)c3cc(F)cnc32)c1 [Example 39] What is its recorded pIC50?
7.63

Consider the compound shown here: CSc1cccc(-n2c(=O)n([C@H]3CC[C@@H](NS(=O)(=O)c4ccccc4)CC3)c(=O)c3cc(F)cnc32)c1 [Example 60] What is its recorded pIC50?
7.49

Consider the compound shown here: O=C(N[C@H]1CC[C@@H](n2c(=O)c3cc(F)cnc3n(-c3ccc(F)c(F)c3)c2=O)CC1)c1ccc(O)cc1 [Example 6] What is its recorded pIC50?
8.64

Source of measurements: patent US20080227797A1
